# credit: ChEMBL document CHEMBL1201862

- System: CAKI-1
- ASSAY_NOTES: NCI tumour cell line growth inhibition, 48 h
Active and inactive are the calls of the source. Cut-off read from the data, not from the text of the source: active = GI50 up to about 1.1 µM and inactive = higher. Bridge positions count the residues as written; N and C are the ends. Square brackets hold non-standard residues; d marks the D form. Peptide text beside a SMILES is read from it. * marks the point of attachment. Cya = N[CH](CS(=O)(=O)O)C(=O)O; X49 = CC(C)CCCCCCCC(O)CC(=O)*; GABA = NCCCC(=O)O
Choose one outcome from this list and give only that: Yes (active), No (inactive)

Previously resolved entries follow.
compound=CCNC(=O)c1cc(/C=C/c2ccc([N+](=O)[O-])o2)nc2ccccc12 answer_label=No
compound=CCOC(=O)c1sc2nc(SC)nc(Nc3ccc4c(c3)OCO4)c2c1N answer_label=No
compound="CC1(C)OCC([C@H]2O[C@@H](CC(=S)NCCCCCCCCCCCCNC(=S)C[C@H]3O[C@@H](C4COC(C)(C)O4)[C@H]4OC(C)(C)O[C@H]43)[C@H]3OC(C)(C)O[C@H]32)O1 (some centres not stated)" answer_label=No
compound=Cc1cc(Cl)cc2c1NC(=O)C2=O.O=C(c1ccccc1)C(F)(F)F answer_label=No
compound=COc1cccc(/N=N/C(=N/NC(=O)c2ccc(C)cc2)c2ccc(N(CCC#N)CCC#N)cc2OC)c1 answer_label=No

Outcome? `O=C(c1ccccc1)c1c(C(=O)c2ccccc2)c(-c2ccccc2)c2c(-c3ccccc3)sc(-c3ccccc3)c2c1-c1ccccc1`
No

Outcome? `NC(=O)/C(=C\c1ccncc1)c1cccc2ccccc12`
No

Outcome? C=CCC(CNC(=O)OCc1ccccc1)O[Si](C)(C)C(C)(C)C (configuration not stated)
No

Outcome? C/C=C/C1OC(O)(C(C)C(O)[C@H](C)C2OC(=O)/C(OC)=C/C(C)=C/[C@@H](C)[C@@H](O)[C@@H](C)C(O)C(C)C/C(C)=C/C=C/C2OC)C[C@@H](OC2CC(O)C(OC(N)=O)C(C)O2)C1C (some centres not stated)
Yes

Outcome? CCC1C(=O)OCc2c1cc1n(c2=O)Cc2cc3ccccc3nc2-1 (configuration not stated)
No

Outcome? CC(C)CCCCCCCC(O)CC(=O)NC(CS(=O)(=O)O)C(=O)NC(CC(C)C)C(=O)NCCCC(=O)NC(Cc1c[nH]cn1)C(=O)NC(C)C(=O)NC1C(=O)NC(C(C)O)C(=O)NC(Cc2c[nH]cn2)C(=O)NC(C)C(=O)NC(C(C)O)C(=O)OC1C (configuration not stated) (X49-[Cya]L[GABA]HATTHAT; ester 6-C; configuration not given here)
No

Outcome? Cc1ccccc1C1=C(C(=O)Nc2ccc(Cl)c(Cl)c2)NC(=S)NC1N (configuration not stated)
No

Outcome? `O=C1c2ccccc2C(=O)N1CC(CN1C(=O)c2ccccc2C1=O)(C(=O)OCc1ccccc1)C(=O)OCc1ccccc1`
No

Outcome? COc1cc(C2c3cc4c(cc3OC(NN=C(C)C)C2C)OCO4)cc(OC)c1O (configuration not stated)
No

Outcome? CCCCCCCCP(=O)(O)OP(=O)(O)OCC1OC(n2ccc(N)nc2=O)C(O)C1O (configuration not stated)
No

Outcome? `Nc1ccc(/N=N/c2ccccc2)cc1`
No

Outcome? CC(=O)OCC1OC(OC(C)=O)C(NC#N)C(OC(C)=O)C1OC(C)=O (configuration not stated)
No

Outcome? COC(=O)C1=C(O)C(C(=O)OC)[C@]2(O)[C@H](C(=O)OC)[C@H]1C[C@@H](c1ccc(Cl)cc1)[C@H]2C(=O)OC (some centres not stated)
No

Outcome? COc1cc(S(=O)(=O)Nc2ccc(-c3csc(N4C(=O)C(Cl)C4c4cccs4)n3)cc2)ccc1Cl (configuration not stated)
No

Outcome? CC1(C)CCC(Sc2ccccc2)O1 (configuration not stated)
No

Outcome? Cc1nc2ccc(NC3OCC(O)C(O)C3O)cc2c(=O)n1-c1ccccc1 (configuration not stated)
No

----------
- Tested on: TK-10
- ASSAY_NOTES: NCI tumour cell line growth inhibition, 48 h
Active and inactive are the calls of the source. Cut-off read from the data, not from the text of the source: active = GI50 up to about 1.1 µM and inactive = higher.
Choose one outcome from this list and give only that: active, inactive

Outcome? O=C(CC(=O)N1N=C(n2ccc3ccccc32)CC1c1ccccc1)Nc1cccc(Cl)c1 (configuration not stated)
inactive

Outcome? O=C1NC(=O)/C(=N\c2cccc3c(=O)[nH][nH]c(=O)c23)C(c2nc3ccccc3s2)C1=O (configuration not stated)
inactive

Outcome? `Nc1ccc(/N=N/c2ccccc2)cc1`
inactive

Outcome? `Cc1ccc2c(ccc(/C=C/c3ccc(O)c4ncccc34)[n+]2C)c1`
inactive

Outcome? `O=C1CCCC2=C1CC1=C(CCCC1=O)N2c1ccc(-c2ccccc2)cc1`
inactive

Outcome? `O=C1CCCSCCCC(=O)CCCSCCC1`
inactive

Outcome? `CC(C)=CCC/C(C)=C/Cc1cc(/C=C/c2cc(O)c(CC=C(C)C)c(O)c2)cc(O)c1O`
inactive

Outcome? COc1ccc(C2CCc3cc4c(cc3/C2=N/OC(C)=O)OCO4)cc1OC (configuration not stated)
inactive

Outcome? `O=C1C=CC(=O)c2c(O)ccc(O)c21`
inactive

Outcome? `COC(=O)C1=NN2c3ccccc3CN([C@@H](C)c3ccccc3)C(=O)[C@@H]2C1`
inactive

Outcome? `N=C1N(/N=C/c2ccccn2)/C(=N\c2ccccc2)C(=S)N1c1ccccc1`
inactive

----------
- System: A549
- ASSAY_NOTES: NCI tumour cell line growth inhibition, 48 h
Calls of active or inactive are those of the source. Rule as the data show it: active = GI50 up to about 1.1 µM and inactive = higher.
REPORTED_METRIC: GI50

Completed entries (count: 2):
compound="ICC1CCCO1 (stereo not drawn)" recorded_measurement="> 100 µM (inactive)"
compound="CCOC(=O)C1c2[nH]c3ccccc3c2CCN1C(=O)c1ccco1 (stereo not drawn)" recorded_measurement="> 10 µM (inactive)"

Reported GI50, compound CC(C)C1OC(=O)/C=C/C=C/C=C/C=C/C=C/CC(O)C(C)C(O)CC(O)CC(O)CC(O)CC(O)CC(O)CC(O)/C=C/C1C (stereo not drawn) : ____
> 100 µM (inactive)

----------
List of GI50 values.
- Test system: MCF7
- ASSAY_NOTES: NCI tumour cell line growth inhibition, 48 h
The source made the active and inactive calls. Rule as the data show it: active = GI50 up to about 1.1 µM and inactive = higher.

Completed entries (count: 10):
molecule=CC(=O)C1=C(O)/C(=C\c2ccco2)OC1=O test_system=MCF7 reported_metric=GI50 recorded_measurement="> 10 µM (inactive)"
molecule="Cc1cn(C2CC(OC(c3ccccc3)(c3ccccc3)c3ccccc3)C(COC(c3ccccc3)(c3ccccc3)c3ccccc3)O2)c(=O)[nH]c1=O (centres undefined)" test_system=MCF7 reported_metric=GI50 recorded_measurement="19 µM (inactive)"
molecule=Cc1ccsc1/C(S)=N\c1ccc(Cl)c(/C=N/OC(C)(C)C)c1 test_system=MCF7 reported_metric=GI50 recorded_measurement="35.2 µM (inactive)"
molecule="CC1CC(=O)N(N(C)C)C2(C#N)C(=O)N=C(N)C12C#N (centres undefined)" test_system=MCF7 reported_metric=GI50 recorded_measurement="> 100 µM (inactive)"
molecule="CC(C)=CCc1c(C)cc2cc3c(c(O)c2c1O)C(=O)C=C(O)C3(CC=C(C)C)C/C=C(\\C)CO (centres undefined)" test_system=MCF7 reported_metric=GI50 recorded_measurement="42.7 µM (inactive)"
molecule=CCN(CC)c1ccc(/C=C2\CCc3ccc([N+](=O)[O-])cc3C2=O)cc1 test_system=MCF7 reported_metric=GI50 recorded_measurement="0.535 µM (active)"
molecule=COC(=O)C1=NN2c3ccccc3CN([C@@H](C)c3ccccc3)C(=O)[C@@H]2C1 test_system=MCF7 reported_metric=GI50 recorded_measurement="34.8 µM (inactive)"
molecule=CC(C)=CCC/C(C)=C/Cc1cc(/C=C/c2cc(O)c(CC=C(C)C)c(O)c2)cc(O)c1O test_system=MCF7 reported_metric=GI50 recorded_measurement="3.45 µM (inactive)"
molecule=COc1ccc(/C=N/c2nc3cc4sc(/N=C/c5ccc(OC)cc5)nc4cc3s2)cc1 test_system=MCF7 reported_metric=GI50 recorded_measurement="11.6 µM (inactive)"
molecule=CN1C(=O)c2c(c3c4ccccc4n(C)c3c3c2c2ccccc2n3C)C1=O test_system=MCF7 reported_metric=GI50 recorded_measurement="> 100 µM (inactive)"

Reported GI50, molecule OC(c1ccco1)C(F)(F)c1nc2ccccc2o1 (centres undefined) : ____
41.1 µM (inactive)

Reported GI50, molecule `COc1ccccc1NC(=S)NN=C(C)c1cccc(C(C)=NNC(=S)Nc2ccccc2OC)n1` : ____
29.1 µM (inactive)

Reported GI50, molecule `Cc1nc(O)nc(N(CCO)/N=C/c2ccc(Cl)cc2)c1C(=O)Nc1ccc(Cl)cc1` : ____
> 100 µM (inactive)

Reported GI50, molecule `CC[C@H](C)C1=C(OC(C)=O)[N@+]2([O-])Oc3ccc(-c4c(O)c(O)c(-c5ccc(OC(C)=O)cc5)c(OC(C)=O)c4OC(C)=O)cc3O[C@]2([C@@H](C)CC)C(=O)N1O` : ____
19.4 µM (inactive)
